- target or system: T1, EGFRvIII expressed on cells (CHO^EGFRvIII, F98^EGFRvIII) (UniProt P00533 25-1210)
- T1 construct: whole, on cells; the vIII deletion must be applied; also called deletion mutant EGFRvIII
- test: flow cytometry on F98^EGFRvIII cells; scFv detected with anti-His followed by FITC-conj. goat anti-mouse IgG, mean fluorescence intensity
parameter: EC50 (read off the curve)

- scFv 476 (scFv, V domains shown, One-chain scFv, His-tagged) VH: EVQLVQSGAEVKKPGESLKISCKGSGYSFTSYWIGWVRQMPGKGLEWMGIIYPGDSDTRYSPSFQGQVTISADKSISTAYLQWSSLKASDTAMYYCARLGSSWTNDAFDIWGQGTLVTVSS VL: SYELTQPPSVSVSPGQTARITCSGDNIPHQYAYWYQQKPGQAPVLVIYKDTERPAGIPERFSGSSSGTTVTLTISGVQAEDEADYYCQSADPTGAYLVFGGGTKLTVL: ~2 nM
- scFv 474 (scFv, V domains shown, One-chain scFv, His-tagged) VH: EVQLVQSGAEVKKPGESLKISCKGSGYSFSHYWIGWVRQMPGKGLEWMGITYPGDVDTRYDPSFQGQVTISADKSISTAYLQWSSLKASDTAMYYCARLGSSWTNDAFDIWGQGTLVTVSS VL: SYELTQPPSVSVSPGQTARITCSGDALPKTYAYWYQQKPGQAPVLVIYKDTERPSGIPERFSGSSSGTTVTLTISGVQAEDEADYYCQSADSSGTYLVFGGGTKLTVL: ~2 nM

Moving on to the next binder.
Query block: Name the reported EC50 (read off the curve) value associated with the binder scFv 471 (scFv, V domains shown, One-chain scFv, His-tagged) VH: EVQLVQSGAEVKKPGESLKISCKGSGYSFNSYWIGWVRQMPGKGLEWMGIIYPGDSANRYSPSFQGQVTISADKSISTAYLQWSSLKASDTAMYYCARLGSSWTNDAFDIWGQGTLVTVSS VL: SYELTQPPSVSVSPGQTARITCSGDYLPKQYAYWYQQKPGQAPVLVIYKDTERPSGIPERFSGSSSGTTVTLTISGVQAEDEADYYCQSVDSSHPSVVFGGGTKLTVL
Result block: ~2 nM
